Test system: PPARg:RXRa 90nM:30nM, anti-RXR (NR concentration 90 nM, RXRa partner concentration 30 nM)
test description: PBM binding z-score (relative to random genomic background probes); higher = stronger binding; sequences stand for … in GC…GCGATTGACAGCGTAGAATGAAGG
Entries get a class label from measured PBM binding z-score. See ranges: low group (below 0.9), middle group (0.9 to below 4), high group (4 or more)

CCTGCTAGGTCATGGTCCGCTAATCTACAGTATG = middle group

Sort into band: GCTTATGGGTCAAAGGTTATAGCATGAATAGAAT
high group

Proceed to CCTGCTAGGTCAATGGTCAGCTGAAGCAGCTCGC
high group
